Measured EC50 (M), CRE-luciferase reporter in CHO-CRE-LGR7 cells, listed per entry.
tgt: T1, human LGR7/RXFP1 receptor (human, UniProt Q9HBX9 1-757)
T1 sequence (looked up): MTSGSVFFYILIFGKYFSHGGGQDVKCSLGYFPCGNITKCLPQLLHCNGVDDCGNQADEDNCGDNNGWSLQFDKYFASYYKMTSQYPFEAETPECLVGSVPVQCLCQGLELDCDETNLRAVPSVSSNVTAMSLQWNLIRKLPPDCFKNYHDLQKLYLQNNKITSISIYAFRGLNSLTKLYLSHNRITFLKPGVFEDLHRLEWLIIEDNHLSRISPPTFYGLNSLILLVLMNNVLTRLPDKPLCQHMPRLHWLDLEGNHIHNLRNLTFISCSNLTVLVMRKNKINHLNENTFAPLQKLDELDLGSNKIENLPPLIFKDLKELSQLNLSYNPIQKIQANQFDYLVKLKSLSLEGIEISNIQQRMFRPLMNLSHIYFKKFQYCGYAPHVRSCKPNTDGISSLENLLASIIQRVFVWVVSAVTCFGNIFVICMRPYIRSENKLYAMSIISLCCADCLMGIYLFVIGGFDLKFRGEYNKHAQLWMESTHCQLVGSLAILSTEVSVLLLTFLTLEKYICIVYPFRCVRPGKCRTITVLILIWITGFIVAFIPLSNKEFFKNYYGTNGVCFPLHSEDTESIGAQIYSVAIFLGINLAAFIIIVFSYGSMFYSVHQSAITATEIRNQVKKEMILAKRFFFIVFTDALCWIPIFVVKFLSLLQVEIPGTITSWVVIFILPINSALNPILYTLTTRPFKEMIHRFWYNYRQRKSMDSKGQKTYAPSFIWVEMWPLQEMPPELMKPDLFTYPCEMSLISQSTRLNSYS
experiment description: cell-based or functional assay
observable: EC50 (M), CRE-luciferase reporter in CHO-CRE-LGR7 cells

>  <binder>
scR10 (ligand) EQKLISEEDLQLYSALANKCCHVGCTKRSLARFCGGGSGGGSGGGSGGSWMEEVIKLCGRELVRAQIAICGMSTWS

>  <experimental result>
4.4e-08

$$$$
>  <binder>
scR5 (ligand) EQKLISEEDLQLYSALANKCCHVGCTKRSLARFCGGGSGGGSGGGSWMEEVIKLCGRELVRAQIAICGMSTWSYPYDVPDYAHHHHHH

>  <experimental result>
3.7e-11

$$$$
>  <binder>
scR3 (ligand) EQKLISEEDLQLYSALANKCCHVGCTKRSLARFCGGGSGGGSWMEEVIKLCGRELVRAQIAICGMSTWSYPYDVPDYAHHHHHH

>  <experimental result>
7.7e-11

$$$$
